Tested on: RAW264.7
experimentNotes: Inhibition of nitrite level in LPS-induced mouse RAW264.7 cells at 5 uM by Griess assay relative to LPS treated control
Format: functional
Reported inhibition at 5 µM values are given for each entry in this list.
Hi! Could you send only the number? It should be in %, unit omitted.

Check out these entries, answers already filled in.
Query (molecule): O=C(O)CCCCC1CCSS1 (stereo not given) ; field requested: inhibition at 5 µM
25.2

Query (molecule): `CC1(C)CCC(C)(C)c2cc(C(=O)NC3CC3)ccc21` ; field requested: inhibition at 5 µM
20.5

Query (molecule): `COc1ccc(/C=C/C(=O)Nc2cc3c(cc2C)C(C)(C)CCC3(C)C)cc1OC` ; field requested: inhibition at 5 µM
24.1

Query (molecule): `CC1(C)CCC(C)(C)c2cc(C(=O)NC3CCN(Cc4ccccc4)CC3)ccc21` ; field requested: inhibition at 5 µM
21

Query (molecule): `CC1(C)CCC(C)(C)c2cc(C(=O)NN3CCOCC3)ccc21` ; field requested: inhibition at 5 µM
5.8

***
Query (molecule): `CC1(C)CCC(C)(C)c2cc(C(=O)NN3CCCCCC3)ccc21` ; field requested: inhibition at 5 µM
25.7

Query (molecule): `COc1cc(/C=C/C(=O)Nc2cc3c(cc2C)C(C)(C)CCC3(C)C)ccc1O` ; field requested: inhibition at 5 µM
17.8

Query (molecule): `CC1(C)CCC(C)(C)c2cc(C(=O)Nc3cccc4ccccc34)ccc21` ; field requested: inhibition at 5 µM
10.5

Query (molecule): `CC1(C)CC(NC(=O)c2ccc3c(c2)C(C)(C)CCC3(C)C)CC(C)(C)N1` ; field requested: inhibition at 5 µM
19.1

Query (molecule): `CC1=C(/C=C/C(C)=C/C=C/C(C)=C/C(=O)O)C(C)(C)CCC1` ; field requested: inhibition at 5 µM
57.2

====

Tested on: RAW264.7
experimentNotes: Cytotoxicity against mouse RAW264.7 cells at 5 uM by MTT assay
Format: cell-based
assayContext: raw264.7, 5 µM
propertyMeasured: Activity

Check out these entries, answers already filled in.
Query (molecule): `O=C(O)/C=C/c1ccc(O)c(O)c1` ; field requested: Activity
Non-toxic

Query (molecule): `CC1(C)CCC(C)(C)c2cc(C(=O)NC3CCN(Cc4ccccc4)CC3)ccc21` ; field requested: Activity
Non-toxic

Query (molecule): `CC1(C)CC(NC(=O)c2ccc3c(c2)C(C)(C)CCC3(C)C)CC(C)(C)N1` ; field requested: Activity
Non-toxic

Query (molecule): `CC1(C)CC(N)CC(C)(C)N1[O]` ; field requested: Activity
Non-toxic

Pending molecule:
Query (molecule): `Cc1cc2c(cc1NC(=O)c1ccc3c(c1)C(C)(C)CCC3(C)C)C(C)(C)CCC2(C)C` ; field requested: Activity
Toxic

====

Test system: RAW264.7
experimentNotes: Inhibition of nitrite level in LPS-induced mouse RAW264.7 cells at 5 uM by Griess assay relative to LPS treated control
Assay type: functional
Criterion: inhibition at 5 µM meeting or surpassing 30%. Met: y. Not met: n.

Example results:
Record `CC1(C)CCC(C)(C)c2cc(C(=O)Nc3nc4ccccc4[nH]3)ccc21` ; criterion: inhibition at 5 µM no lower than 30%. Met?
n

Record `Cc1cc2c(cc1NC(=O)/C=C/c1ccc(O)c(O)c1)C(C)(C)CCC2(C)C` ; criterion: inhibition at 5 µM no lower than 30%. Met?
n

Record CC1(C)CC(N)CC(C)(C)N1[O] [TEMPAMINE] ; criterion: inhibition at 5 µM no lower than 30%. Met?
n

Record Cc1c(C)c2c(c(C)c1O)CCC(C)(C(=O)O)O2 (stereo not given) [TROLOX] ; criterion: inhibition at 5 µM no lower than 30%. Met?
y

Below: the item to evaluate.
Record `CC1(C)CCC(C)(C)c2cc(C(=O)Nc3cc[nH]c(=O)n3)ccc21` ; criterion: inhibition at 5 µM no lower than 30%. Met?
n

====

Test system: RAW264.7
experimentNotes: Inhibition of nitrite level in LPS-induced mouse RAW264.7 cells at 5 uM by Griess assay relative to LPS treated control
Format: functional
Criterion: inhibition at 5 µM meeting or surpassing 20%. Met: Yes. Not met: No.

Example results:
Record `CC1(C)CCC(C)(C)c2cc(C(=O)NCCN3CCOCC3)ccc21` ; criterion: inhibition at 5 µM no lower than 20%. Met?
No

Record O=C(O)/C=C/c1ccc(O)c(O)c1 [CAFFEIC ACID] ; criterion: inhibition at 5 µM no lower than 20%. Met?
Yes

Record `Cc1cc2c(cc1NC(=O)CCCC[C@@H]1CCSS1)C(C)(C)CCC2(C)C` ; criterion: inhibition at 5 µM no lower than 20%. Met?
Yes

Record COc1cc(/C=C/C(=O)O)ccc1O [FERULATE] ; criterion: inhibition at 5 µM no lower than 20%. Met?
Yes

Record `CC1(C)CCC(C)(C)c2cc(C(=O)NC3CC(C)(C)N([O])C(C)(C)C3)ccc21` ; criterion: inhibition at 5 µM no lower than 20%. Met?
No

Below: the item to evaluate.
Record CC(=O)Oc1c(C)c(C)c2c(c1C)CCC(C)(C(=O)Nc1cc3c(cc1C)C(C)(C)CCC3(C)C)O2 (stereo unspecified) ; criterion: inhibition at 5 µM no lower than 20%. Met?
No

====

Tested on: RAW264.7
experimentNotes: Cytotoxicity against mouse RAW264.7 cells at 50 uM by MTT assay
Type: cell-based
assayContext: raw264.7, 50 µM
propertyMeasured: Activity

Check out these entries, answers already filled in.
Query (compound): `CC1(C)CC(N)CC(C)(C)N1[O]` ; field requested: Activity
Non-toxic

Query (compound): `O=C(O)/C=C/c1ccc(O)c(O)c1` ; field requested: Activity
Non-toxic

Query (compound): `CC1=C(/C=C/C(C)=C/C=C/C(C)=C/C(=O)O)C(C)(C)CCC1` ; field requested: Activity
Non-toxic

Query (compound): O=C(O)CCCCC1CCSS1 (stereo unspecified) ; field requested: Activity
Non-toxic

Pending compound:
Query (compound): Cc1c(C)c2c(c(C)c1O)CCC(C)(C(=O)O)O2 (stereo unspecified) ; field requested: Activity
Non-toxic

====

Test system: RAW264.7
experimentNotes: Cytotoxicity against mouse RAW264.7 cells at 50 uM by MTT assay
Assay type: cell-based
assayContext: raw264.7, 50 µM
propertyMeasured: Activity

Query (molecule): `CC1(C)CCC(C)(C)c2cc(C(=O)NN3CCCCCC3)ccc21` ; field requested: Activity
Toxic

Query (molecule): `Cc1cc2c(cc1NC(=O)CCCc1ccccc1)C(C)(C)CCC2(C)C` ; field requested: Activity
Toxic

Query (molecule): Cc1cc2c(cc1NC(=O)C1(C)CCc3c(C)c(O)c(C)c(C)c3O1)C(C)(C)CCC2(C)C (stereo unspecified) ; field requested: Activity
Toxic

Query (molecule): `CC1(C)CCC(C)(C)c2cc(C(=O)NC3CCN(Cc4ccccc4)CC3)ccc21` ; field requested: Activity
Non-toxic

Query (molecule): `CC1(C)CCC(C)(C)c2cc(C(=O)NCCN3CCOCC3)ccc21` ; field requested: Activity
Toxic

Query (molecule): `CC1(C)CCC(C)(C)c2cc(C(=O)NCc3ccc(F)cc3F)ccc21` ; field requested: Activity
Toxic

Query (molecule): `COc1ccc(/C=C/C(=O)Nc2cc3c(cc2C)C(C)(C)CCC3(C)C)cc1OC` ; field requested: Activity
Non-toxic

Query (molecule): `Cc1cc2c(cc1NC(=O)/C=C/c1ccccc1)C(C)(C)CCC2(C)C` ; field requested: Activity
Toxic

***
Query (molecule): `CC1(C)CCC(C)(C)c2cc(C(=O)NC3CC(C)(C)N([O])C(C)(C)C3)ccc21` ; field requested: Activity
Toxic

Query (molecule): COc1cc(/C=C/C(=O)O)ccc1O [FERULATE] ; field requested: Activity
Non-toxic

Query (molecule): `CC1(C)CCC(C)(C)c2cc(C(=O)Nc3cc[nH]c(=O)n3)ccc21` ; field requested: Activity
Toxic

Query (molecule): `COc1cc(/C=C/C(=O)Nc2cc3c(cc2C)C(C)(C)CCC3(C)C)ccc1O` ; field requested: Activity
Toxic

Query (molecule): `CC1(C)CC(NC(=O)c2ccc3c(c2)C(C)(C)CCC3(C)C)CC(C)(C)N1` ; field requested: Activity
Non-toxic

Query (molecule): `CC1(C)CCC(C)(C)c2cc(C(=O)Nc3nc4ccccc4[nH]3)ccc21` ; field requested: Activity
Non-toxic

Query (molecule): `Cc1cc2c(cc1NC(=O)c1ccc3c(c1)C(C)(C)CCC3(C)C)C(C)(C)CCC2(C)C` ; field requested: Activity
Toxic

Query (molecule): `CC1(C)CCC(C)(C)c2cc(C(=O)Nc3nccs3)ccc21` ; field requested: Activity
Toxic

Query (molecule): `CC1(C)CCC(C)(C)c2cc(C(=O)NN3CCOCC3)ccc21` ; field requested: Activity
Toxic

Query (molecule): `COc1ccc(CCCC(=O)Nc2cc3c(cc2C)C(C)(C)CCC3(C)C)cc1OC` ; field requested: Activity
Toxic

Query (molecule): `CC1(C)CCC(C)(C)c2cc(C(=O)NC3CC3)ccc21` ; field requested: Activity
Toxic

Query (molecule): `CC1(C)CCC(C)(C)c2cc(C(=O)NN3CCCCC3)ccc21` ; field requested: Activity
Toxic

Query (molecule): `Cc1cc2c(cc1NC(=O)/C=C/c1ccc(O)c(O)c1)C(C)(C)CCC2(C)C` ; field requested: Activity
Toxic

Source of measurements: ChEMBL document CHEMBL2040752
